The molecules below have reported Ki for 5-hydroxytryptamine receptor 1A (Homo sapiens).

Provide the reported Ki of each entry below, same order.
1. c1ccc(CN2CCN(C[C@@H]3CO[C@@](c4ccccc4)(C4CCCCC4)O3)CC2)cc1 (relative stereo)
2. c1ccc(CC2CCN(C[C@@H]3CO[C@@](c4ccccc4)(C4CCCCC4)O3)CC2)cc1 (relative stereo)
3. c1ccc(CC2CCN(CC3COC(C4CCCCC4)(C4CCCCC4)O3)CC2)cc1 (stereo unspecified)
4. c1ccc(CN2CCN(CC3CSC(c4ccccc4)(c4ccccc4)S3)CC2)cc1 (stereo unspecified)

Result string:
> 1000 nM
> 1000 nM
> 1000 nM
> 1000 nM

###

- Species on record: Cavia porcellus
- assay-overview: Selectivity ratio of Ki for sigma-1 receptor in guinea pig brain membranes to Ki for sigma-2 receptor in guinea pig brain membranes
- Format: cell membranes
Just a reminder that ties go to N: only Ratio Ki strictly below 3 counts as Y.

The following compounds have reported results that may help.
- compound: "c1ccc(CN2CCN(CC3COC(C4CCCCC4)(C4CCCCC4)O3)CC2)cc1 (centres undefined)"
  group-label: "Y"
- compound: "c1ccc(CC2CCN(CC3CSC(c4ccccc4)(c4ccccc4)S3)CC2)cc1 (centres undefined)"
  group-label: "N"
- compound: "O[C@H]1[C@@H](CN2CCC(Cc3ccccc3)CC2)CCC1(c1ccccc1)c1ccccc1 (relative stereo)"
  group-label: "N"
- compound: "OCC(CN1CCN(Cc2ccccc2)CC1)OC(c1ccccc1)c1ccccc1 (centres undefined)"
  group-label: "Y"

Please examine the following record next.
Query string: Dear colleague, could you confirm whether Ratio Ki of c1ccc(CC2CCN(C[C@H]3CO[C@@](c4ccccc4)(C4CCCCC4)O3)CC2)cc1 falls below 3? Thanks.
Result string: N

###

- assay-overview: Displacement of [3H]DTG from sigma-2 receptor in guinea pig brain membranes after 120 mins by liquid scintillation counting method
- Type: cell membranes, Cavia porcellus, Membrane
Consider the following compounds; for each one, report its pKi.
Numbers only.

Look over these answered cases.
- compound: "c1ccc(CC2CCN(CC3CCC(c4ccccc4)(c4ccccc4)O3)CC2)cc1 (configuration not stated)"
  pKi: 6.69
- compound: "O[C@@H]1[C@@H](CN2CCC(Cc3ccccc3)CC2)CCC1(c1ccccc1)c1ccccc1 (relative stereo)"
  pKi: 5.05
- compound: "c1ccc(CC2CCN(CCOC(c3ccccc3)c3ccccc3)CC2)cc1"
  pKi: 6.77

For each of the items listed, what is its pKi?
1. c1ccc(CN2CCN(C[C@H]3CO[C@@](c4ccccc4)(C4CCCCC4)O3)CC2)cc1 (relative stereo)
2. O[C@H]1[C@@H](CN2CCC(Cc3ccccc3)CC2)CCC1(c1ccccc1)c1ccccc1 (relative stereo)
3. O[C@@H]1[C@@H](CN2CCN(Cc3ccccc3)CC2)CCC1(c1ccccc1)c1ccccc1 (relative stereo)
4. c1ccc(CN2CCN(CC3COC(C4CCCCC4)(C4CCCCC4)O3)CC2)cc1 (configuration not stated)

Result string:
1. 7.79
2. 5.66
3. 7
4. 8.3

###

- Species on record: Cavia porcellus
- assay-overview: Selectivity ratio of Ki for sigma-1 receptor in guinea pig brain membranes to Ki for sigma-2 receptor in guinea pig brain membranes
- Assay type: cell membranes
Please mark yes (1) if the recorded Ratio Ki is equal to or greater than 20, and no (0) if it falls below.

Below, 5 compounds whose answers are already recorded.
- compound: "O[C@@H]1[C@@H](CN2CCC(Cc3ccccc3)CC2)CCC1(c1ccccc1)c1ccccc1 (relative stereo)"
  group-label: "yes (1)"
- compound: "c1ccc(CC2CCN(CC3COC4(CCCCC4)O3)CC2)cc1 (configuration not stated)"
  group-label: "no (0)"
- compound: "c1ccc(CN2CCN(C[C@H]3CO[C@@](c4ccccc4)(C4CCCCC4)O3)CC2)cc1 (relative stereo)"
  group-label: "no (0)"
- compound: "O=C1C(CN2CCC(Cc3ccccc3)CC2)CCC1(c1ccccc1)c1ccccc1 (configuration not stated)"
  group-label: "no (0)"
- compound: "O[C@H]1[C@@H](CN2CCN(Cc3ccccc3)CC2)CCC1(c1ccccc1)c1ccccc1 (relative stereo)"
  group-label: "no (0)"

Consider the record given below.
Query string: State whether the measured Ratio Ki reaches 20, counting equality as reaching it, for c1ccc(CC2CCN(C[C@@H]3CO[C@@](c4ccccc4)(C4CCCCC4)O3)CC2)cc1 (relative stereo)
Result string: no (0)

###

- target-under-test: Sigma non-opioid intracellular receptor 1 (Cavia porcellus)
- Sequence (Q60492 whole entry): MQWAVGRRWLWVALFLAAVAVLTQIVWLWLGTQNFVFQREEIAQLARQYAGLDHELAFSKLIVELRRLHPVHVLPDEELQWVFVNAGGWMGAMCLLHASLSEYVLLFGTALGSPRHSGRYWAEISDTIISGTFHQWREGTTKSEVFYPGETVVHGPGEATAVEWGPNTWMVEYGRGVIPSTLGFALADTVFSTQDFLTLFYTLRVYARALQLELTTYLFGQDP
- assay-overview: Displacement of [3H]-(+)-pentazocine from sigma-1 receptor in guinea pig brain membranes after 150 mins by liquid scintillation counting method
- Format: cell membranes, Membrane
Assign labels as follows, please: 1 for Ki below 200 nM; 0 for Ki equal to or exceeding 200 nM.

Example cases with answers are listed next.
- compound: "c1ccc(CC2CCN(CC3COc4ccccc4O3)CC2)cc1 (stereo unspecified)"
  group-label: 1
- compound: "OCC(CN1CCN(Cc2ccccc2)CC1)OC(c1ccccc1)c1ccccc1 (stereo unspecified)"
  group-label: 1
- compound: "c1ccc(CN2CCN(CC3COC4(CCCCC4)O3)CC2)cc1 (stereo unspecified)"
  group-label: 1
- compound: "c1ccc(CC2CCN(C[C@H]3CO[C@@](c4ccccc4)(C4CCCCC4)O3)CC2)cc1"
  group-label: 1

Query string: A record lists O[C@H]1[C@@H](CN2CCC(Cc3ccccc3)CC2)CCC1(c1ccccc1)c1ccccc1 (relative stereo) . Is its Ki below 200 nM?
Result string: 0

###

- assay-overview: Displacement of [3H]DTG from sigma-2 receptor in guinea pig brain membranes after 120 mins by liquid scintillation counting method
- Type: cell membranes, Cavia porcellus, Membrane
Binary call on pKi: 1 from 7 upward, -1 beneath that.

- compound: "c1ccc(CC2CCN(CC3COC(C4CCCCC4)(C4CCCCC4)O3)CC2)cc1 (stereo not drawn)"
  group-label: -1
- compound: "c1ccc(CC2CCN(C[C@H]3CO[C@@](c4ccccc4)(C4CCCCC4)O3)CC2)cc1"
  group-label: -1
- compound: "c1ccc(CC2CCN(CC3COc4ccccc4O3)CC2)cc1 (stereo not drawn)"
  group-label: 1
- compound: "c1ccc(CN2CCN(C[C@@H]3CO[C@@](c4ccccc4)(C4CCCCC4)O3)CC2)cc1 (relative stereo)"
  group-label: 1
- compound: "O[C@H]1[C@@H](CN2CCN(Cc3ccccc3)CC2)CCC1(c1ccccc1)c1ccccc1 (relative stereo)"
  group-label: -1

API: the following record is the query input.
Query string: Dear colleague, could you confirm whether c1ccc(CN2CCN(CC3CSC(c4ccccc4)(c4ccccc4)O3)CC2)cc1 (stereo not drawn) has pKi at or above 7?
Result string: -1

###

Reported Ki for target or system 5-hydroxytryptamine receptor 1A (Homo sapiens), by entry.

Consider the worked cases shown below.
- compound: "c1ccc(CC2CCN(C[C@H]3CO[C@@](c4ccccc4)(C4CCCCC4)O3)CC2)cc1"
  target-under-test: "5-hydroxytryptamine receptor 1A (Homo sapiens)"
  reported-measurement: "> 1 µM"
- compound: "c1ccc(CN2CCN(CC3CCC(c4ccccc4)(c4ccccc4)O3)CC2)cc1 (configuration not stated)"
  target-under-test: "5-hydroxytryptamine receptor 1A (Homo sapiens)"
  reported-measurement: "> 1 µM"
- compound: "OCC(CN1CCN(Cc2ccccc2)CC1)OC(c1ccccc1)c1ccccc1 (configuration not stated)"
  target-under-test: "5-hydroxytryptamine receptor 1A (Homo sapiens)"
  reported-measurement: "> 1 µM"
- compound: "c1ccc(CC2CCN(CC3COC(c4ccccc4)(c4ccccc4)O3)CC2)cc1 (configuration not stated)"
  target-under-test: "5-hydroxytryptamine receptor 1A (Homo sapiens)"
  reported-measurement: "0.55 µM"
- compound: "O[C@H]1[C@@H](CN2CCC(Cc3ccccc3)CC2)CCC1(c1ccccc1)c1ccccc1 (relative stereo)"
  target-under-test: "5-hydroxytryptamine receptor 1A (Homo sapiens)"
  reported-measurement: "0.00759 µM"

Look at each compound and report its Ki.
1. O=C1C(CN2CCN(Cc3ccccc3)CC2)CCC1(c1ccccc1)c1ccccc1 (configuration not stated)
2. O[C@@H]1[C@@H](CN2CCN(Cc3ccccc3)CC2)CCC1(c1ccccc1)c1ccccc1 (relative stereo)

Result string:
["> 1 µM", "0.126 µM"]

Count: 6. Required value per item: Ki.
1. c1ccc(CN2CCN(CC3COC(C4CCCCC4)(C4CCCCC4)O3)CC2)cc1 (configuration not stated)
2. c1ccc(CC2CCN(CC3CSC(c4ccccc4)(c4ccccc4)S3)CC2)cc1 (configuration not stated)
3. c1ccc(CN2CCN(CCOC(c3ccccc3)c3ccccc3)CC2)cc1
4. O[C@H]1[C@@H](CN2CCN(Cc3ccccc3)CC2)CCC1(c1ccccc1)c1ccccc1 (relative stereo)
5. c1ccc(CC2CCN(CC3CCC(c4ccccc4)(c4ccccc4)O3)CC2)cc1 (configuration not stated)
6. c1ccc(CN2CCN(CC3COC(c4ccccc4)(c4ccccc4)O3)CC2)cc1 (configuration not stated)

Result string:
1: > 1 µM; 2: > 1 µM; 3: > 1 µM; 4: 0.00724 µM; 5: > 1 µM; 6: > 1 µM

Dear colleague, could you send me Ki for each of the items below? Thanks.
1. O=C1C(CN2CCC(Cc3ccccc3)CC2)CCC1(c1ccccc1)c1ccccc1 (configuration not stated)
2. c1ccc(CN2CCN(C[C@H]3CO[C@@](c4ccccc4)(C4CCCCC4)O3)CC2)cc1 (relative stereo)
3. c1ccc(CN2CCN(CC3COC4(CCCCC4)O3)CC2)cc1 (configuration not stated)
4. c1ccc(CC2CCN(CCOC(c3ccccc3)c3ccccc3)CC2)cc1

Result string:
1. > 1 µM
2. > 1 µM
3. > 1 µM
4. > 1 µM
